molecular target: his-galectin-3 (Homo sapiens, UniProt P17931); construct: purchased Abcam; assay: TR-FRET assay (in vitro galectin-3 binding inhibitory activity test); conditions: Table 2; compound at 20 μM; 60 nM his-galectin-3, 15 nM biotin-ASF; read-out: % Inhibitory activity (at 20 μM)
Sequence (P17931 whole entry): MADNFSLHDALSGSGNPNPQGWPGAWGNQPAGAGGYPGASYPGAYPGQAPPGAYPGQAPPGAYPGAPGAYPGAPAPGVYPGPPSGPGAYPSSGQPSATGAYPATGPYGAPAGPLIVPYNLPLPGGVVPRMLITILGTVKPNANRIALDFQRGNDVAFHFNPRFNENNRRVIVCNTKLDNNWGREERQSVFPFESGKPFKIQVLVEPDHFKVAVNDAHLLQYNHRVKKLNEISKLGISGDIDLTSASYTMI
MEASURED PARAMETER: inhibition at 20 µM

STRUCTURE SMILES | inhibition at 20 µM
Cc1cc(C(=O)N[C@@H]2CCO[C@]23O[C@H](CO)[C@H](O)[C@H](n2cc(-c4cc(F)c(F)c(F)c4)nn2)[C@H]3O)c2cc(Cl)ccc2n1 | > 75%
O=C(N[C@@H]1CCO[C@]12O[C@H](CO)[C@H](O)[C@H](n1cc(-c3cc(F)c(F)c(F)c3)nn1)[C@H]2O)c1cccc2c1CCCC2 | 50 to 75%
O=C(N[C@@H]1CCO[C@]12O[C@H](CO)[C@H](O)[C@H](n1cc(-c3cc(F)c(F)c(F)c3)nn1)[C@H]2O)c1nsc2cc(Br)ccc12 | 50 to 75%

(Q) Could you share which inhibition at 20 µM value was measured for OC[C@H]1O[C@@]2(CCCN(c3cccc4ccccc34)C2)[C@H](O)[C@@H](n2cc(-c3cc(F)c(F)c(F)c3)nn2)[C@H]1O ?
(A) < 25%

(Q) Could you share which inhibition at 20 µM value was measured for O=C(Cc1cccc(Oc2ccccc2)c1)N[C@@H]1CCO[C@]12O[C@H](CO)[C@H](O)[C@H](n1cc(-c3cc(F)c(F)c(F)c3)nn1)[C@H]2O ?
(A) < 25%

(Q) Could you share which inhibition at 20 µM value was measured for Cc1cc(C(=O)N[C@@H]2CCO[C@]23O[C@H](CO)[C@H](O)[C@H](n2cc(-c4cc(F)c(F)c(F)c4)nn2)[C@H]3O)c2cc(F)ccc2n1 ?
(A) > 75%

(Q) Could you share which inhibition at 20 µM value was measured for O=C(N[C@@H]1CCO[C@]12O[C@H](CO)[C@H](O)[C@H](n1cc(-c3cc(F)c(F)c(F)c3)nn1)[C@H]2O)c1ccc2cc(Cl)ccc2c1 ?
(A) 25 to 50%

(Q) Could you share which inhibition at 20 µM value was measured for O=C(c1ccc(Cl)cc1)N1CCC[C@]2(C1)O[C@H](CO)[C@H](O)[C@H](n1cc(-c3cc(F)c(F)c(F)c3)nn1)[C@H]2O ?
(A) < 25%

(Q) Could you share which inhibition at 20 µM value was measured for O=C(Nc1cccc(Cl)c1)N[C@@H]1CCO[C@]12O[C@H](CO)[C@H](O)[C@H](n1cc(-c3cc(F)c(F)c(F)c3)nn1)[C@H]2O ?
(A) > 75%

(Q) Could you share which inhibition at 20 µM value was measured for O=C(N[C@@H]1CCO[C@]12O[C@H](CO)[C@H](O)[C@H](n1cc(-c3cc(F)c(F)c(F)c3)nn1)[C@H]2O)c1cccc2sccc12 ?
(A) > 75%

(Q) Could you share which inhibition at 20 µM value was measured for O=C(N[C@@H]1CCO[C@]12O[C@H](CO)[C@H](O)[C@H](n1cc(-c3cc(F)c(F)c(F)c3)nn1)[C@H]2O)c1csc2ccccc12 ?
(A) > 75%

(Q) Could you share which inhibition at 20 µM value was measured for OC[C@H]1O[C@]2(OCC[C@H]2n2ccnn2)[C@H](O)[C@@H](n2cc(-c3cc(F)c(F)c(F)c3)nn2)[C@H]1O ?
(A) < 25%
